# Tested on: Bacillus subtilis ATCC 6633
# assay.text: agar-plate disc-diffusion test
# experimental.parameters: suspended in water at 1 mg/ml; 7 mm disc; 24-48 hours at 25-37° C.
measured.endpoint: Size of Zone of Inhibition (mm) Bacillus subtilis ATCC 6633

substance.smiles | quantity.unit | reported.measurement
CCCCCCCCCCC(=O)N[C@@H](Cc1c[nH]c2ccccc12)C(=O)N[C@@H](CC(N)=O)C(=O)N[C@@H](CC(=O)O)C(=O)N[C@@H]1C(=O)NCC(=O)N[C@@H](CCCN)C(=O)N[C@@H](CC(=O)O)C(=O)N[C@H](C)C(=O)N[C@@H](CC(=O)O)C(=O)NCC(=O)N[C@H](CO)C(=O)N[C@@H]([C@H](C)CC(=O)O)C(=O)N[C@@H](CC(=O)c2ccccc2N)C(=O)O[C@@H]1C | mm | 19
